Items are presented alongside their recorded pIC50.
Biological target: Her2 exon 20 YVMA insertion (A775_G776ins YVMA) (Homo sapiens, UniProt P04626, INS775YVMA)
Sequence (P04626 with tags, fused parts or gaps INS775YVMA): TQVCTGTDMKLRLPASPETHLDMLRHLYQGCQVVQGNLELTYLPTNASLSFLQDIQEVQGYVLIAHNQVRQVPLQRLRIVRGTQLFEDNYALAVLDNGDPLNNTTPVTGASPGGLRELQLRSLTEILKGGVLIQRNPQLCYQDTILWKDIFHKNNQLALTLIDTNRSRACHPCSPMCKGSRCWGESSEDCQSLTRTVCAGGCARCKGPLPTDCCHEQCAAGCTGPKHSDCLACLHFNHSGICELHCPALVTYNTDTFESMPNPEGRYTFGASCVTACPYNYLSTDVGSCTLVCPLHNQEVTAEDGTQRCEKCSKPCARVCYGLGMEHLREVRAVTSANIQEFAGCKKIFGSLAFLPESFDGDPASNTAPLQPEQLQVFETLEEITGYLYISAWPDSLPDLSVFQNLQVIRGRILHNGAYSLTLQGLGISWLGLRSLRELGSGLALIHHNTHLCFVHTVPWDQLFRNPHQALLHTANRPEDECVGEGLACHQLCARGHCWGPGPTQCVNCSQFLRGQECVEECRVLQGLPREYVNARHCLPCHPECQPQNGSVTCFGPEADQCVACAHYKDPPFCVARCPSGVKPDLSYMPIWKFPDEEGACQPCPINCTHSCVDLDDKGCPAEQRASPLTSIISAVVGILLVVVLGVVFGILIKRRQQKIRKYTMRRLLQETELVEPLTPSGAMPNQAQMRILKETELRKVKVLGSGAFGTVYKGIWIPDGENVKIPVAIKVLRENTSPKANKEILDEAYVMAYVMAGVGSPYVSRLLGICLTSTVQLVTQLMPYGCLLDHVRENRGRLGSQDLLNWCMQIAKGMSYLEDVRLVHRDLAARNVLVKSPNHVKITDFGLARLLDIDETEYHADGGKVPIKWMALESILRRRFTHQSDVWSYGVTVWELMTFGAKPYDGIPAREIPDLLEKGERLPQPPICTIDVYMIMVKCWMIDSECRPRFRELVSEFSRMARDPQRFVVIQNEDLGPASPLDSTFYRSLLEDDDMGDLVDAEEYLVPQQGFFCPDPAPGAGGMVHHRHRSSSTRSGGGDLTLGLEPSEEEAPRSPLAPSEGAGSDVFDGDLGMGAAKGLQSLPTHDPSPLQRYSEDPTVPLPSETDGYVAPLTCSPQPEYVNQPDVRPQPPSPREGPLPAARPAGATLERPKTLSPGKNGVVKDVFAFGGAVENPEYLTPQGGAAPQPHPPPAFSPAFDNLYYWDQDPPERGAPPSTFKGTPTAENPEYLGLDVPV
Assay: Ba/F3-Her2 Exon20 YVMA cell anti-proliferative assay (CellTiter 96 MTS, 72 h)
Settings: Ba/F3-Her2 Exon20 YVMA cells
Procedure: A compound's ability in selectively inhibiting Her2 exon 20 YVMA insertion mutations can be assessed using Ba/F3 cells, a murine pro-B cell line, which have been transduced with Her2 Exon20 YVMA insertions. […] The anti-proliferative activity of compounds was determined as follows: BaF3-Her2 Exon20 YVMA cells seeded in 96 well plates (2500 cells/well) were treated with test compound (dissolved in DMSO) at a series of concentrations (4-fold dilution, top concentration: 10,000 nM). […]
pIC50: −log10 of the molar value.

Solved cases (5 shown):
[[record]]
smiles_representation = "C=CC(=O)Nc1cc(Nc2ncc(-c3ncc[nH]3)c(-c3cn4c5c(cccc35)CCC4)n2)c(OC)cc1N(C)CCN(C)C"
target_entity = "Her2 exon 20 YVMA insertion (A775_G776ins YVMA) (Homo sapiens, UniProt P04626, INS775YVMA)"
readout_value = "< 6.00"

[[record]]
smiles_representation = "C=CC(=O)Nc1cc(Nc2ncc(C(=O)CC)c(-c3cn4c5c(cccc35)CCC4)n2)c(OC)cc1N(C)CCN(C)C"
target_entity = "Her2 exon 20 YVMA insertion (A775_G776ins YVMA) (Homo sapiens, UniProt P04626, INS775YVMA)"
readout_value = "> 7.00"

[[record]]
smiles_representation = "C=CC(=O)Nc1cc(Nc2ncc(C3CC3)c(-c3cn4c5c(cccc35)CCC4)n2)c(OC)cc1N(C)CCN(C)C"
target_entity = "Her2 exon 20 YVMA insertion (A775_G776ins YVMA) (Homo sapiens, UniProt P04626, INS775YVMA)"
readout_value = "6.00 to 6.30"

[[record]]
smiles_representation = "C=CC(=O)Nc1cc(Nc2ncc(-c3nnco3)c(-c3cn4c5c(cccc35)CCC4)n2)c(OC)cc1N(C)CCN(C)C"
target_entity = "Her2 exon 20 YVMA insertion (A775_G776ins YVMA) (Homo sapiens, UniProt P04626, INS775YVMA)"
readout_value = "> 7.00"

[[record]]
smiles_representation = "C=CC(=O)Nc1cc(Nc2ncc(Cl)c(-c3cn4c5c(cccc35)OCC4)n2)c(OC)cc1O[C@H](COCC)CN(C)C"
target_entity = "Her2 exon 20 YVMA insertion (A775_G776ins YVMA) (Homo sapiens, UniProt P04626, INS775YVMA)"
readout_value = "6.30 to 7.00"


Could you tell me which pIC50 is on file for `C=CC(=O)Nc1cc(Nc2ncc(C#N)c(-c3cn4c5c(cccc35)CCC4)n2)c(OC)cc1N(C)CCN(C)C` ?
> 7.00

Please look up its pIC50: `C=CC(=O)Nc1cc(Nc2ncc(C#N)c(-c3cn4c5c(cccc35)OCC4)n2)c(OC)cc1N(C)CCN(C)C`
> 7.00

----------
In this section, each of the compounds is paired with its reported pIC50.
Biological target: human EGFR exon 20 insertion ASV (V769_D770insASV) (Homo sapiens, UniProt P00533, INS769ASV)
Sequence (P00533 with tags, fused parts or gaps INS769ASV): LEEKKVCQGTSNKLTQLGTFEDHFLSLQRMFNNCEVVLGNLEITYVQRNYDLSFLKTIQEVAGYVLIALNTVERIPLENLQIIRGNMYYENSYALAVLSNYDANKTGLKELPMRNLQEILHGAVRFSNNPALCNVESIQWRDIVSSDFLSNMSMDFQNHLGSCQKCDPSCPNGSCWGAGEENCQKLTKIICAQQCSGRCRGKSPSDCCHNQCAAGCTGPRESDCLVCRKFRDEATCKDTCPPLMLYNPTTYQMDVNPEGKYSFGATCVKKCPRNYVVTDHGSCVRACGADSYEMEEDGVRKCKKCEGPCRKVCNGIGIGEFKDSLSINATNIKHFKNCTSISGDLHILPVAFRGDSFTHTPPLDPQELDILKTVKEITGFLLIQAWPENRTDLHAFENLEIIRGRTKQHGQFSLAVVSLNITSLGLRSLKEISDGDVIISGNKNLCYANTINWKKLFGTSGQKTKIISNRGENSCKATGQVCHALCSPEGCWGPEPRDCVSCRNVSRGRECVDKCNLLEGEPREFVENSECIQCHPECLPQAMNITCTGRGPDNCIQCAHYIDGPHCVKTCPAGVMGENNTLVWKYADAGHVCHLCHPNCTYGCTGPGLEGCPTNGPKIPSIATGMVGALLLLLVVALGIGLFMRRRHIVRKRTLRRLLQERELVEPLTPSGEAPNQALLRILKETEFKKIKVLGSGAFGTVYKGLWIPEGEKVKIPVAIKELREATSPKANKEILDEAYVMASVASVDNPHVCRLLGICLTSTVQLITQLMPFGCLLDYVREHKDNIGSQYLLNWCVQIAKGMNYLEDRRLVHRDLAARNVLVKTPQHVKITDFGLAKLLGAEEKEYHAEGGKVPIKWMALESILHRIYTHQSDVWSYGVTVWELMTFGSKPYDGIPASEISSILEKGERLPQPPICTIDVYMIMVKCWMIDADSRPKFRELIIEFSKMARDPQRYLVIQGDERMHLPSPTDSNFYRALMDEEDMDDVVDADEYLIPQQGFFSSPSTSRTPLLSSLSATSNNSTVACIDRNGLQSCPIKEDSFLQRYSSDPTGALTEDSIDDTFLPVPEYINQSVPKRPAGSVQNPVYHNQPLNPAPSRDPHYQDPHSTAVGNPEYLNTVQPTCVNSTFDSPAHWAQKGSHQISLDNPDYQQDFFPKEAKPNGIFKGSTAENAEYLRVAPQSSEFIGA
Experiment: Ba/F3-EGFR-Exon20-ASV cell anti-proliferative assay (CellTiter 96 MTS, 72 h)
Details: Ba/F3-EGFR-Exon20-ASV cells
Method: An expression vector, pLVX-IRES puro (Clontech) coding for human EGFR exon 20 insertions NPG (H773_V774insNPG) or ASV (V769_D770insASV), was transfected into HEK293 cells by the Trans-Lentiviral ORF Packaging System (Thermo Scientific), to produce virus encoding EGFR exon 20 insertions. […] The absorbance in each well was then measured at 490 nm using an Envision plate reader (Perkin Elmer).
pIC50: −log10 of the molar value.

Recorded pIC50, per entry:
[[record]]
compound = "C=CC(=O)Nc1cc(Nc2ncc(-c3cn[nH]c3)c(-c3cn4c5c(cccc35)CCC4)n2)c(OC)cc1N(C)CCN(C)C"
readout_value = "> 7.00"

[[record]]
compound = "C=CC(=O)Nc1cc(Nc2ncc(CCC3CCOC3)c(-c3cn4c5c(cccc35)CCC4)n2)c(OC)cc1N(C)CCN(C)C (centres unmarked)"
readout_value = "6.30 to 7.00"

[[record]]
compound = "C=CC(=O)Nc1cc(Nc2ncc(C(=O)O)c(-c3cn4c5c(cccc35)CCC4)n2)c(OC)cc1N(C)CCN(C)C"
readout_value = "< 6.00"

[[record]]
compound = "C=CC(=O)Nc1cc(Nc2nccc(-c3c(N4CCC(OC)C4)n4c5c(cccc35)CCC4)n2)c(OC)cc1N(C)CCN(C)C (centres unmarked)"
readout_value = "6.30 to 7.00"

[[record]]
compound = "C=CC(=O)Nc1cc(Nc2ncc(CC)c(-c3cn4c5c(cccc35)N(C)C(=O)C4)n2)c(OC)cc1N(C)CCN(C)C"
readout_value = "> 7.00"

[[record]]
compound = "C=CC(=O)Nc1cc(Nc2ncc(CCC3CCCC3)c(-c3cn4c5c(cccc35)CCC4)n2)c(OC)cc1N(C)CCN(C)C"
readout_value = "6.00 to 6.30"

[[record]]
compound = "C=CC(=O)Nc1cc(Nc2ncc(CCC(C)O)c(-c3cn4c5c(cccc35)CCC4)n2)c(OC)cc1N(C)CCN(C)C (centres unmarked)"
readout_value = "> 7.00"

[[record]]
compound = "C=CC(=O)Nc1cc(Nc2ncc(Cl)c(-c3cn4c5c(cccc35)OCC4)n2)c(OC)cc1N(C)CC1CCCN1C (centres unmarked)"
readout_value = "> 7.00"

[[record]]
compound = "C=CC(=O)Nc1cc(Nc2ncc(C#N)c(-c3cn4c5c(cccc35)CCC4)n2)c(OC)cc1N(C)CCNC"
readout_value = "> 7.00"

[[record]]
compound = "C=CC(=O)Nc1cc(Nc2ncc(C#N)c(-c3cn4c5c(cccc35)OCC4)n2)c(OC)cc1N1CC[C@@H](N(C)C)C1"
readout_value = "> 7.00"


Param item = `C=CC(=O)Nc1cc(Nc2nccc(-c3c(N4CCCC4=O)n4c5c(cccc35)CCC4)n2)c(OC)cc1N(C)CCN(C)C` ; retrieve measured pIC50.
> 7.00

Item under review: `C=CC(=O)Nc1cc(Nc2ncc(CO)c(-c3cn4c5c(cccc35)CCC4)n2)c(OC)cc1N(C)CCN(C)C` . Reported pIC50?
> 7.00

# query: pIC50 of entry `C=CC(=O)Nc1cc(Nc2ncc(-c3nc(C)no3)c(-c3cn4c5c(cccc35)CCC4)n2)c(OC)cc1N(C)CCN(C)C`
> 7.00

Sample `C=CC(=O)Nc1cc(Nc2ncc(OC(F)F)c(-c3cn4c5c(cccc35)CCC4)n2)c(OC)cc1N(C)CCN(C)C` — what was its pIC50?
> 7.00

----------
Target: human EGFR exon 20 insertion ASV (V769_D770insASV) (Homo sapiens, UniProt P00533, INS769ASV)
Assay: Ba/F3-EGFR-Exon20-ASV cell anti-proliferative assay (CellTiter 96 MTS, 72 h)
Conditions: Ba/F3-EGFR-Exon20-ASV cells
pIC50: −log10 of the molar value.
Readings of pIC50 for the listed molecules

pIC50 lookup needed for C=CC(=O)Nc1cc(Nc2ncc(CCC(=O)OC)c(-c3cn4c5c(cccc35)CCC4)n2)c(OC)cc1N(C)CCN(C)C [Example 39] , thanks.
6.30 to 7.00

----------
Target: Her2 exon 20 YVMA insertion (A775_G776ins YVMA) (Homo sapiens, UniProt P04626, INS775YVMA)
Construct: expressed in transfected cells; host or cells: Ba/F3 (murine pro-B) cells transduced with lentivirus from pLVX-IRES puro
Assay: Ba/F3-Her2 Exon20 YVMA cell anti-proliferative assay (CellTiter 96 MTS, 72 h)
Type: cell-based
Details: Ba/F3-Her2 Exon20 YVMA cells
Collected IC50 values appear next to each entry.

Known IC50 results, listed for orientation:
[[record]]
compound = "C=CC(=O)Nc1cc(Nc2ncc(C(=O)OC(C)C)c(-c3cn4c5c(cccc35)CCC4)n2)c(OC)cc1N(C)CCN(C)C [Example 103]"
readout_value = "< 100 nM"

[[record]]
compound = "C#Cc1cnc(Nc2cc(NC(=O)C=C)c(N(C)CCN(C)C)cc2OC)nc1-c1cn2c3c(cccc13)CCC2 [Example 31]"
readout_value = "< 100 nM"

[[record]]
compound = "C=CC(=O)Nc1cc(Nc2ncc(OCC(C)O)c(-c3cn4c5c(cccc35)CCC4)n2)c(OC)cc1N(C)CCN(C)C (centres unmarked) [Example 51]"
readout_value = "100 to 500 nM"

[[record]]
compound = "C=CC(=O)Nc1cc(Nc2ncc(CCC#N)c(-c3cn4c5c(cccc35)CCC4)n2)c(OC)cc1N(C)CCN(C)C [Example 41]"
readout_value = "< 100 nM"

[[record]]
compound = "C=CC(=O)Nc1cc(Nc2ncc(CO)c(-c3cn4c5c(cccc35)CCC4)n2)c(OC)cc1N(C)CCN(C)C [Example 70]"
readout_value = "100 to 500 nM"


Endpoint output: IC50 of C=CC(=O)Nc1cc(Nc2ncc(NC(=O)CC)c(-c3cn4c5c(cccc35)CCC4)n2)c(OC)cc1N(C)CCN(C)C [Example 91] . Value?
100 to 500 nM

Reported IC50, compound C=CC(=O)Nc1cc(Nc2ncc(Cl)c(-c3cn4c5c(cccc35)OCC4)n2)c(OC)cc1N(C)CC1CCCN1C (centres unmarked) [Example 8] : ____
100 to 500 nM

Please give the measured IC50 for this compound: C=CC(=O)Nc1cc(Nc2ncc(C(=O)NC)c(-c3nn4c5c(cccc35)OCC4)n2)c(OC)cc1N(C)CCN(C)C [Example 67]
> 1000 nM

Quick one: IC50 for C=CC(=O)Nc1cc(Nc2ncc(Cl)c(-c3cn4c5c(cccc35)CCC4)n2)c(OC)cc1OCCN1CCN(C)CC1 [Example 21] ?
> 1000 nM

Give its IC50 value. Item: C=CC(=O)Nc1cc(Nc2nccc(-c3c(-c4ncnn4C)n4c5c(cccc35)CCC4)n2)c(OC)cc1N(C)CCN(C)C [Example 110]
> 1000 nM

Looking for the measured IC50 of C=CC(=O)Nc1cc(Nc2ncc(C#N)c(-c3cn4c5c(cccc35)N(C)C(=O)C4)n2)c(OC)cc1N1CC[C@@H](N(C)C)C1 [Example 55] , can you help?
100 to 500 nM

May I ask what IC50 has been recorded for C=CC(=O)Nc1cc(Nc2ncc(C=C)c(-c3cn4c5c(cccc35)CCC4)n2)c(OC)cc1N(C)CCN(C)C [Example 27] ?
< 100 nM

# IC50 lookup, item C=CC(=O)Nc1cc(Nc2ncc(-c3cnn(CC)c3)c(-c3cn4c5c(cccc35)CCC4)n2)c(OC)cc1N(C)CCN(C)C [Example 99]
< 100 nM

Which IC50 is reported for this compound? C=CC(=O)Nc1cc(Nc2ncc(N(C)S(C)(=O)=O)c(-c3cn4c5c(cccc35)CCC4)n2)c(OC)cc1N(C)CCN(C)C [Example 59]
> 1000 nM
